Experiment: Human HepG2 cell viability assay in 384 well format
Type: toxicity, cell-based
Parameters: dose 125 nL, time 70.5 hour; concentration not given beside the values
Conditions: HepG2 cells, read-out: Inhibition
In this section, each of the compounds is paired with its reported cytotoxicity at 70.5 h.
Dear colleague, please return just the value in %, with no unit written.

Some compounds with known cytotoxicity at 70.5 h results, for comparison:
What value of cytotoxicity at 70.5 h has been recorded for this entry: COc1c(C2CCCN2CC(=O)N2CCCCC2)c(C)nn1C (stereo unspecified) 4.89

Another compound to check: Cc1cnc(-c2nc(O)c3c(n2)CN(C(=O)C2CCOC2)CC3)cn1 (stereo unspecified) -1.76

Next compound up: O=c1cc(CN(CCO)C2CC2)nc2ccc(Cl)cn12 14.2

Item: Cc1cnn(CCNCc2csc(-c3ccc(C(N)=O)cc3)n2)c1 -1.79

Now the same for CC(=O)N1CCc2nc(N3CCCC3)nc(C)c2C1 -0.643

Next entry: CCOCc1cnc2n1CCN(Cc1nc(C)cs1)C2C (stereo unspecified) -3.1

---
Requested field: cytotoxicity at 70.5 h. Item: OCc1ccc(-c2c(-c3ccccc3)ncn2CCN2CCOCC2)o1 16.6
